Experiment: Evaluation of absorption wavelength property in CHCl3 solution
Format: physicochemical
Can you tell me λmax for the items I'm about to list?
Provide only the numeric value, understood in nm.

Specify reported λmax for the compound shown: CCN(CC)c1ccc(/C=C(\C#N)C(=O)OCCOC(=O)/C(C#N)=C/c2ccc(N(CC)CC)cc2)cc1
436

Specify reported λmax for the compound shown: CCN(CC)c1ccc(/C=C(\C#N)C(=O)Oc2ccc(-c3nc(-c4ccc(OC(=O)/C(C#N)=C/c5ccc(N(CC)CC)cc5)cc4)nc(-c4ccc(OC(=O)/C(C#N)=C/c5ccc(N(CC)CC)cc5)cc4)n3)cc2)cc1
447

Specify reported λmax for the compound shown: CCCCN(CCCC)c1ccc(/C=C(\C#N)C(=O)OCC(C)(COC(=O)/C(C#N)=C/c2ccc(N(CCCC)CCCC)cc2)COC(=O)/C(C#N)=C/c2ccc(N(CCCC)CCCC)cc2)cc1
440

Specify reported λmax for the compound shown: CN(C)c1ccc(/C=C(\C#N)C(=O)OCCCCCCCCCCOC(=O)/C(C#N)=C/c2ccc(N(C)C)cc2)cc1
423

Specify reported λmax for the compound shown: CC(COC(=O)/C(C#N)=C/c1ccc(N(Cc2ccccc2)Cc2ccccc2)cc1)(COC(=O)/C(C#N)=C/c1ccc(N(Cc2ccccc2)Cc2ccccc2)cc1)COC(=O)/C(C#N)=C/c1ccc(N(Cc2ccccc2)Cc2ccccc2)cc1
425

====

Assay: Heat resistance of exposed coating film of coloring alkali-developable photosensitive composition
Type: physicochemical
Conditions: exposed coating film after 230° C., 30 min
observed.property: Relative intensity 230° C., 30 min

Specify reported Relative intensity 230° C., 30 min for the compound shown: CCN(CC)c1ccc(/C=C(\C#N)C(=O)OCC(C)(COC(=O)/C(C#N)=C/c2ccc(N(CC)CC)cc2)COC(=O)/C(C#N)=C/c2ccc(N(CC)CC)cc2)cc1 [Compound No. 56]
99.9

Specify reported Relative intensity 230° C., 30 min for the compound shown: CCN(CC)c1ccc(/C=C(\C#N)C(=O)OCC(C)(COC(=O)/C(C#N)=C/c2ccc(N(CC)CC)cc2)COC(=O)/C(C#N)=C/c2ccc(N(c3ccccc3)c3ccccc3)cc2)cc1 (stereo not shown) [Compound No. 96]
99.5

Specify reported Relative intensity 230° C., 30 min for the compound shown: CCN(CC)c1ccc(/C=C(\C#N)C(=O)OCCOC(=O)/C(C#N)=C/c2ccc(N(CC)CC)cc2)cc1 [Compound No. 1]
99.4

Specify reported Relative intensity 230° C., 30 min for the compound shown: CN(CCO)c1ccc(/C=C(\C#N)C(=O)OCC(C)(COC(=O)/C(C#N)=C/c2ccc(N(C)CCO)cc2)COC(=O)/C(C#N)=C/c2ccc(N(C)CCO)cc2)cc1 [Compound No. 98]
99.5

Specify reported Relative intensity 230° C., 30 min for the compound shown: CCN(CC)c1ccc(/C=C(\C#N)C(=O)OCC(CC)(COC(=O)/C(C#N)=C/c2ccc(N(CC)CC)cc2)COC(=O)/C(C#N)=C/c2ccc(N(CC)CC)cc2)cc1 [Compound No. 57]
99.9

Specify reported Relative intensity 230° C., 30 min for the compound shown: C=C(C)C(=O)OCCN(C)c1ccc(/C=C(\C#N)C(=O)OCCCCCCOC(=O)/C(C#N)=C/c2ccc(N(C)CCOC(=O)C(=C)C)cc2)cc1 [Compound No. 66]
99.2

Specify reported Relative intensity 230° C., 30 min for the compound shown: CCN(CC)c1ccc(/C=C(\C#N)C(=O)OCCCCCCCOC(=O)/C(C#N)=C/c2ccc(N(CC)CC)cc2)cc1 [Compound No. 5]
99.5

Specify reported Relative intensity 230° C., 30 min for the compound shown: CCN(CC)c1ccc(/C=C(\C#N)C(=O)Oc2ccc(C(C)(C)c3ccc(OC(=O)/C(C#N)=C/c4ccc(N(CC)CC)cc4)cc3)cc2)cc1 [Compound No. 6]
99.9

Specify reported Relative intensity 230° C., 30 min for the compound shown: N#C/C(=C\c1ccc(N2CCOCC2)cc1)C(=O)OCCCCCCCOC(=O)/C(C#N)=C/c1ccc(N2CCOCC2)cc1 [Compound No. 60]
73.8

Specify reported Relative intensity 230° C., 30 min for the compound shown: CCN(CC)c1ccc(/C=C(\C#N)C(=O)OCC(C)(COC(=O)/C(C#N)=C/c2ccc(N(C)CCO)cc2)COC(=O)/C(C#N)=C/c2ccc(N(C)CCO)cc2)cc1 [Compound No. 99]
99.6

Specify reported Relative intensity 230° C., 30 min for the compound shown: CCOCCOC(=O)/C(C#N)=C/c1ccc(N(CC)CC)cc1 [Comparative Compound No. 2, reference compound]
24.0

Specify reported Relative intensity 230° C., 30 min for the compound shown: CCN(CC)c1ccc(/C=C(\C#N)C(=O)OCC(C)OC(=O)/C(C#N)=C/c2ccc(N(CC)CC)cc2)cc1 (stereo not shown) [Compound No. 2]
99.3

Specify reported Relative intensity 230° C., 30 min for the compound shown: CC(COC(=O)/C(C#N)=C/c1ccc(N(Cc2ccccc2)Cc2ccccc2)cc1)(COC(=O)/C(C#N)=C/c1ccc(N(Cc2ccccc2)Cc2ccccc2)cc1)COC(=O)/C(C#N)=C/c1ccc(N(Cc2ccccc2)Cc2ccccc2)cc1 [Compound No. 101]
99.4

Specify reported Relative intensity 230° C., 30 min for the compound shown: CCN(CC)c1ccc(/C=C(\C#N)C(=O)OCC(C)(COC(=O)/C(C#N)=C/c2ccc(N3CCOCC3)cc2)COC(=O)/C(C#N)=C/c2ccc(N3CCOCC3)cc2)cc1 [Compound No. 97]
98.2

Specify reported Relative intensity 230° C., 30 min for the compound shown: CCN(CC)c1ccc(/C=C(\C#N)C(=O)OCCCOC(=O)/C(C#N)=C/c2ccc(N(CC)CC)cc2)cc1 [Compound No. 3]
99.4

Specify reported Relative intensity 230° C., 30 min for the compound shown: CCN(CC)c1ccc(/C=C(\C#N)C(=O)OCC(C)(COC(=O)/C(C#N)=C/c2ccc(N(C)CCO)cc2)COC(=O)/C(C#N)=C/c2ccc(N(CC)CC)cc2)cc1 (stereo not shown) [Compound No. 100]
99.7

Specify reported Relative intensity 230° C., 30 min for the compound shown: N#C/C(=C\c1ccc(N(c2ccccc2)c2ccccc2)cc1)C(=O)OCCCCCCCOC(=O)/C(C#N)=C/c1ccc(N(c2ccccc2)c2ccccc2)cc1 [Compound No. 65]
99.3

Specify reported Relative intensity 230° C., 30 min for the compound shown: CCN(CC)c1ccc(/C=C(\C#N)C(=O)OCC(COC(=O)/C(C#N)=C/c2ccc(N(CC)CC)cc2)(COC(=O)/C(C#N)=C/c2ccc(N(CC)CC)cc2)COC(=O)/C(C#N)=C/c2ccc(N(CC)CC)cc2)cc1 [Compound No. 16]
99.7

Specify reported Relative intensity 230° C., 30 min for the compound shown: CN(CCO)c1ccc(/C=C(\C#N)C(=O)OCCCCCCOC(=O)/C(C#N)=C/c2ccc(N(C)CCO)cc2)cc1 [Compound No. 59]
99.7
